# Test system: 991263-137-R1-J2-PDC complex spheroid viability
# protocol notes: Anticancer human tumor 991263-137-R1-J2-PDC patient-derived colon adenocarcinoma cell line growth inhibition [POLQ]
# recorded conditions: second compound 0.0316 µM; first compound 0.001 µM; stronger effect = lower value

{"molecule": "CC[C@@]1(O)C(=O)OCc2c1cc1n(c2=O)Cc2cc3c(CN(C)C)c(O)ccc3nc2-1 + Nc1ccc(C#CCN(C(=O)Cc2ncc(C(F)(F)F)cc2C(F)(F)F)c2ccc(F)cc2)nn1", "value units": "%", "viability, T/C": 92.6}
{"molecule": "Cn1ncnc1[C@H]1c2n[nH]c(=O)c3cc(F)cc(c23)N[C@@H]1c1ccc(F)cc1 + COC1C(OC(N)=O)C(O)C(Oc2ccc3c(O)c(NC(=O)c4ccc(O)c(CC=C(C)C)c4)c(=O)oc3c2C)OC1(C)C", "value units": "%", "viability, T/C": 107}
{"molecule": "CC[C@@]1(O)C(=O)OCc2c1cc1n(c2=O)Cc2cc3c(CN(C)C)c(O)ccc3nc2-1 + Cc1cccc(N(C)C(=O)C2C(O)CCN2c2nc(C)cc(C(F)(F)F)c2C#N)c1", "value units": "%", "viability, T/C": 115}

---

# Test system: 991263-137-R1-J2-PDC complex spheroid viability
# protocol notes: Anticancer human tumor 991263-137-R1-J2-PDC cell line growth inhibition [POLQ];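 also: spheroids exposed to compounds for 7 days before readout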
# recorded conditions: curve of first compound; second compound 1 µM
assay endpoint: IC50

{"molecule": "CNCc1ccc(-c2[nH]c3cc(F)cc4c3c2CCNC4=O)cc1 + Nc1ccc(C#CCN(C(=O)Cc2ncc(C(F)(F)F)cc2C(F)(F)F)c2ccc(F)cc2)nn1", "assay endpoint": "IC50", "observed measurement": "> 10 µM"}
{"molecule": "C#Cc1c(F)ccc2cc(O)cc(-c3ncc4c(N5CC6CCC(C5)N6)nc(OCC56CCCN5CC(F)C6)nc4c3F)c12 (stereo not given) + Cc1cccc(N(C)C(=O)C2C(O)CCN2c2nc(C)cc(C(F)(F)F)c2C#N)c1", "assay endpoint": "IC50", "observed measurement": "> 10 µM"}
{"molecule": "CCc1cc2c(N3CCc4c(cc(Cn5ccnc5)cc4-c4cn(C)nc4C(F)(F)F)C3=O)cc(C)nc2c(OC)n1 + Cc1cccc(N(C)C(=O)C2C(O)CCN2c2nc(C)cc(C(F)(F)F)c2C#N)c1", "assay endpoint": "IC50", "observed measurement": "> 10 µM"}
{"molecule": "C=CCn1c(=O)c2cnc(Nc3ccc(N4CCN(C)CC4)cc3)nc2n1-c1cccc(C(C)(C)O)n1 + Cc1cccc(N(C)C(=O)C2C(O)CCN2c2nc(C)cc(C(F)(F)F)c2C#N)c1", "assay endpoint": "IC50", "observed measurement": "> 1 µM"}
{"molecule": "CC(C)n1c(=O)n(C)c2cnc3cc(F)c(-c4ccc(OCCCN5CCCCC5)nc4)cc3c21 + Cc1cccc(N(C)C(=O)C2C(O)CCN2c2nc(C)cc(C(F)(F)F)c2C#N)c1", "assay endpoint": "IC50", "observed measurement": "> 10 µM"}
{"molecule": "CCc1cc2c(N3CCc4c(cc(Cn5ccnc5)cc4-c4cn(C)nc4C(F)(F)F)C3=O)ccnc2c(OC)n1 + Cc1cccc(N(C)C(=O)C2C(O)CCN2c2nc(C)cc(C(F)(F)F)c2C#N)c1", "assay endpoint": "IC50", "observed measurement": "> 10 µM"}
{"molecule": "O=C(c1cc(Cc2n[nH]c(=O)c3ccccc23)ccc1F)N1CCN(C(=O)C2CC2)CC1 + Nc1ccc(C#CCN(C(=O)Cc2ncc(C(F)(F)F)cc2C(F)(F)F)c2ccc(F)cc2)nn1", "assay endpoint": "IC50", "observed measurement": "> 10 µM"}
{"molecule": "CC[C@@]1(O)C(=O)OCc2c1cc1n(c2=O)Cc2cc3c(CN(C)C)c(O)ccc3nc2-1 + COC1C(OC(N)=O)C(O)C(Oc2ccc3c(O)c(NC(=O)c4ccc(O)c(CC=C(C)C)c4)c(=O)oc3c2C)OC1(C)C", "assay endpoint": "IC50", "observed measurement": "> 0.1 µM"}
{"molecule": "Nc1ccn(C2OC(CO)C(O)C2(F)F)c(=O)n1 (stereo not given) + Nc1ccc(C#CCN(C(=O)Cc2ncc(C(F)(F)F)cc2C(F)(F)F)c2ccc(F)cc2)nn1", "assay endpoint": "IC50", "observed measurement": "> 10 µM"}
{"molecule": "CC1COCCN1c1cc(-c2ccnn2C)c2ccnc(-c3ccn[nH]3)c2n1 (stereo not given) + Cc1cccc(N(C)C(=O)C2C(O)CCN2c2nc(C)cc(C(F)(F)F)c2C#N)c1", "assay endpoint": "IC50", "observed measurement": "0.99 µM"}
{"molecule": "COc1cc(C2c3cc4c(cc3C(OC3OC5COC(C)OC5C(O)C3O)C3COC(=O)C23)OCO4)cc(OC)c1O (stereo not given) + Cc1cccc(N(C)C(=O)C2C(O)CCN2c2nc(C)cc(C(F)(F)F)c2C#N)c1", "assay endpoint": "IC50", "observed measurement": "> 10 µM"}
{"molecule": "C=CC(=O)N1CCN(c2nc(=O)n(-c3c(C)ccnc3C(C)C)c3nc(-c4c(O)cccc4F)c(F)cc23)C(C)C1 (stereo not given) + Cc1cccc(N(C)C(=O)C2C(O)CCN2c2nc(C)cc(C(F)(F)F)c2C#N)c1", "assay endpoint": "IC50", "observed measurement": "> 10 µM"}
{"molecule": "C#Cc1c(F)ccc2cc(O)cc(-c3ncc4c(N5CC6CCC(C5)N6)nc(OCC56CCCN5CC(F)C6)nc4c3F)c12 (stereo not given) + Nc1ccc(C#CCN(C(=O)Cc2ncc(C(F)(F)F)cc2C(F)(F)F)c2ccc(F)cc2)nn1", "assay endpoint": "IC50", "observed measurement": "> 10 µM"}
{"molecule": "O=C(Nc1ccc(O)c(NS(=O)(=O)c2ccc(F)cc2)c1)c1ccc(-c2ccccc2)cc1 + Nc1ccc(C#CCN(C(=O)Cc2ncc(C(F)(F)F)cc2C(F)(F)F)c2ccc(F)cc2)nn1", "assay endpoint": "IC50", "observed measurement": "> 10 µM"}
{"molecule": "COc1ccc([C@@H](O)c2cc(-c3ncnc4cc(N5CCOCC5)ccc34)c(F)cc2Cl)nn1 + Cc1cccc(N(C)C(=O)C2C(O)CCN2c2nc(C)cc(C(F)(F)F)c2C#N)c1", "assay endpoint": "IC50", "observed measurement": "6.2 µM"}
{"molecule": "O=c1[nH]cc(F)c(=O)[nH]1 + Cc1cccc(N(C)C(=O)C2C(O)CCN2c2nc(C)cc(C(F)(F)F)c2C#N)c1", "assay endpoint": "IC50", "observed measurement": "> 10 µM"}
{"molecule": "CCCS(=O)(=O)Nc1ccc(F)c(C(=O)c2c[nH]c3ncc(-c4ccc(Cl)cc4)cc23)c1F + Cc1cccc(N(C)C(=O)C2C(O)CCN2c2nc(C)cc(C(F)(F)F)c2C#N)c1", "assay endpoint": "IC50", "observed measurement": "> 10 µM"}
{"molecule": "CNCc1ccc(-c2[nH]c3cc(F)cc4c3c2CCNC4=O)cc1 + COC1C(OC(N)=O)C(O)C(Oc2ccc3c(O)c(NC(=O)c4ccc(O)c(CC=C(C)C)c4)c(=O)oc3c2C)OC1(C)C", "assay endpoint": "IC50", "observed measurement": "> 10 µM"}
{"molecule": "COc1ccc([C@@H](O)c2cc(-c3ncnc4cc(N5CCOCC5)ccc34)c(F)cc2Cl)nn1 + Nc1ccc(C#CCN(C(=O)Cc2ncc(C(F)(F)F)cc2C(F)(F)F)c2ccc(F)cc2)nn1", "assay endpoint": "IC50", "observed measurement": "5.15 µM"}
{"molecule": "CC(=O)O[C@H]1C(=O)[C@@]2(C)[C@H]([C@H](OC(=O)c3ccccc3)[C@]3(O)C[C@H](OC(=O)[C@H](O)[C@@H](NC(=O)c4ccccc4)c4ccccc4)C(C)=C1C3(C)C)[C@]1(OC(C)=O)CO[C@@H]1C[C@@H]2O + COC1C(OC(N)=O)C(O)C(Oc2ccc3c(O)c(NC(=O)c4ccc(O)c(CC=C(C)C)c4)c(=O)oc3c2C)OC1(C)C", "assay endpoint": "IC50", "observed measurement": "1.54 µM"}
